Attribution: patent US20140179664A1

# tested.on: JAK3 (Homo sapiens, UniProt P52333)
# Construct: endogenous in cells
# measurement.notes: Kinobeads assay, JAK3
# experimental.parameters: mixed Molt4/Ramos lysate, read-out: Inhibition values (IC50) JAK3
# Description: The compounds of the present invention as described in the previous examples were tested in a Kinobeads™ assay as described for ZAP-70 (WO-A 2007/137867). […] Bound proteins were then eluted and the presence of JAK1, JAK2, JAK3 and TYK2 was detected and quantified using specific antibodies in a dot blot procedure and the Odyssey infrared detection system. Dose response curves for individual kinases were generated and IC50 values calculated. […]
pIC50: −log10 of the molar value.
recorded.endpoint: pIC50

Give the reported pIC50 for this molecule. OCC[C@@H](Nc1nc(Nc2cnn(CCO)c2)ncc1Cl)c1ccccc1
6.00 to 7.00

Give the reported pIC50 for this molecule. OCCn1cc(Nc2ncc(Cl)c(NC(CO)c3cccc(F)c3)n2)cn1 (stereo not drawn)
> 7.00

Give the reported pIC50 for this molecule. Cc1cnc(Nc2cnn(CCO)c2)nc1NC(CO)c1ccccc1 (stereo not drawn)
6.00 to 7.00

Give the reported pIC50 for this molecule. Cn1cc(Nc2ncc(Cl)c(NC(CO)c3cccc(N4CCOCC4=O)c3)n2)cn1 (stereo not drawn)
> 7.00

Give the reported pIC50 for this molecule. Cn1cc(Nc2ncc(Cl)c(N[C@H](CO)c3cccc(N4CCOCC4=O)c3F)n2)cn1
> 7.00

Give the reported pIC50 for this molecule. CNC(=O)Cn1cc(Nc2ncc(Cl)c(N[C@H](CO)c3cc(F)cc(F)c3)n2)cn1
> 7.00

Give the reported pIC50 for this molecule. OCCCn1cc(Nc2ncc(Cl)c(NC(CO)c3ccccc3F)n2)cn1 (stereo not drawn)
> 7.00

Give the reported pIC50 for this molecule. Cc1cnc(Nc2cnn(C)c2)nc1N[C@H](CO)c1cc(F)ccc1F
> 7.00

Give the reported pIC50 for this molecule. CCNC(=O)[C@@H](Nc1nc(Nc2cnn(CCO)c2)ncc1Cl)c1ccccc1
> 7.00

====

# tested.on: JAK3 (Homo sapiens)
# Construct: endogenous in cells
# measurement.notes: Kinobeads assay, JAK3
# experimental.parameters: mixed Molt4/Ramos lysate, read-out: Inhibition values (IC50) JAK3
Assign IC50 to each entry below.

Give the reported IC50 for this compound. CNC(=O)Cn1cc(Nc2ncc(F)c(N[C@H](CO)c3cc(F)cc(-c4cnn(C)c4)c3)n2)cn1
100 to 1000 nM

Give the reported IC50 for this compound. Cn1cc(Nc2ncc(C(F)(F)F)c(NC(C)(CO)c3ccccc3)n2)cn1 (centres unmarked)
100 to 1000 nM

Give the reported IC50 for this compound. Cn1cc(Nc2ncc(Cl)c(NC(CO)Cc3ccccc3)n2)cn1 (centres unmarked)
100 to 1000 nM

Give the reported IC50 for this compound. NC(=O)Cn1cc(Nc2ncc(Cl)c(N[C@H](CO)c3cc(F)ccc3F)n2)cn1
< 100 nM

Give the reported IC50 for this compound. CNC(=O)Cn1cc(Nc2ncc(Cl)c(N[C@H](CCO)c3ccccc3)n2)cn1
100 to 1000 nM

Give the reported IC50 for this compound. Cn1cc(Nc2ncc(Cl)c(NC(CO)c3ccccc3Cl)n2)cn1 (centres unmarked)
< 100 nM

Give the reported IC50 for this compound. OCCn1cc(Nc2ncc(Cl)c(NC(CO)c3ccccc3Cl)n2)cn1 (centres unmarked)
< 100 nM

Give the reported IC50 for this compound. CNC(=O)Cn1cc(Nc2ncc(Cl)c(N[C@H](CO)c3cc(F)cc(-c4cnn(C)c4)c3)n2)cn1
< 100 nM

====

Assign IC50 to each entry below.
# tested.on: TYK2 (Homo sapiens, UniProt P29597)
# Construct: endogenous in cells
# Sequence (P29597 whole entry): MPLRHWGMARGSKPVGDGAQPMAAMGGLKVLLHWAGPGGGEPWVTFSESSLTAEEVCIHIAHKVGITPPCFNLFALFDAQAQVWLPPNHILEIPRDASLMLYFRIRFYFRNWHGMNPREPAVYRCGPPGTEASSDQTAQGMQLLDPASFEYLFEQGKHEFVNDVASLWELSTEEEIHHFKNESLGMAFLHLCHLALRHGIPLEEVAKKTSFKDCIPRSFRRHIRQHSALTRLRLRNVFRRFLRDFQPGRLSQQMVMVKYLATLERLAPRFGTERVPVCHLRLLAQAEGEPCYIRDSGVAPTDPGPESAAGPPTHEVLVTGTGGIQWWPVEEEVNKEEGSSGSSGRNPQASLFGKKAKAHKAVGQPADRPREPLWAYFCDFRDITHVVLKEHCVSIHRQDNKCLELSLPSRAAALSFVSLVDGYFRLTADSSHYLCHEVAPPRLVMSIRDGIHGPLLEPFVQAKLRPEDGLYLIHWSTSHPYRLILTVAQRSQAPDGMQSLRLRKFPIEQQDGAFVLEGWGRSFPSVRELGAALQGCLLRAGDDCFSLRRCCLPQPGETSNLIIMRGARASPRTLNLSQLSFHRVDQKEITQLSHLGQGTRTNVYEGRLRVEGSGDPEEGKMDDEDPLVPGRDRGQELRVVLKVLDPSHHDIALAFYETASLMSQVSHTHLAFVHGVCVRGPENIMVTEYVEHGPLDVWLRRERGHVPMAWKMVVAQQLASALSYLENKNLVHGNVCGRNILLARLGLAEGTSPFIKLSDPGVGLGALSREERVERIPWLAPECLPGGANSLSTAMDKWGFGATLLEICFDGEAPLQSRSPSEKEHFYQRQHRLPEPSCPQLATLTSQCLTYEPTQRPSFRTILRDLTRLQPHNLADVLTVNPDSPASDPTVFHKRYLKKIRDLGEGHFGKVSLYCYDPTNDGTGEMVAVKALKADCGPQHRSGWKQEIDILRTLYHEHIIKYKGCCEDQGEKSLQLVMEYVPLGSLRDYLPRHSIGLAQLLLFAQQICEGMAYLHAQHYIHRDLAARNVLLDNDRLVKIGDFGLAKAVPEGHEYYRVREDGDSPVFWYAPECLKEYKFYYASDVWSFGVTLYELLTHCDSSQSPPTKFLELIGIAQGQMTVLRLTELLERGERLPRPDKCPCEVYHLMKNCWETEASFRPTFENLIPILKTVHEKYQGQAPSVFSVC
# measurement.notes: Kinobeads assay, TYK2
# experimental.parameters: mixed Molt4/Ramos lysate, read-out: Inhibition values (IC50) TYK2

Give the reported IC50 for this compound. CNC(=O)Cn1cc(Nc2ncc(Cl)c(N[C@H](CO)c3ccccc3OC)n2)cn1
100 to 1000 nM

Give the reported IC50 for this compound. COCCNC(=O)[C@@H](Nc1nc(Nc2cnn(C)c2)ncc1Cl)c1ccccc1
1000 to 10000 nM

Give the reported IC50 for this compound. CNC(=O)Cn1cc(Nc2ncc(F)c(N[C@H](CO)c3ccccc3)n2)cn1
1000 to 10000 nM

Give the reported IC50 for this compound. OC[C@@H](Nc1nc(Nc2cn[nH]c2)ncc1Cl)c1cccc(F)c1
100 to 1000 nM

Give the reported IC50 for this compound. COc1cccc([C@@H](CO)Nc2nc(Nc3cnn(CCO)c3)ncc2Cl)c1
1000 to 10000 nM

Give the reported IC50 for this compound. OCCn1cc(Nc2ncc(Cl)c(N[C@H](CO)c3ccccn3)n2)cn1
100 to 1000 nM

Give the reported IC50 for this compound. CN(C)CCCNC(=O)Cn1cc(Nc2ncc(Cl)c(N[C@H](CO)c3ccccc3)n2)cn1
100 to 1000 nM

Give the reported IC50 for this compound. CCNC(=O)[C@@H](Nc1nc(Nc2cnn(CCO)c2)ncc1Cl)c1ccccc1
1000 to 10000 nM

====

Assign IC50 to each entry below.
# tested.on: JAK3 (Homo sapiens)
# Construct: endogenous in cells
# Sequence (P52333 1-1124): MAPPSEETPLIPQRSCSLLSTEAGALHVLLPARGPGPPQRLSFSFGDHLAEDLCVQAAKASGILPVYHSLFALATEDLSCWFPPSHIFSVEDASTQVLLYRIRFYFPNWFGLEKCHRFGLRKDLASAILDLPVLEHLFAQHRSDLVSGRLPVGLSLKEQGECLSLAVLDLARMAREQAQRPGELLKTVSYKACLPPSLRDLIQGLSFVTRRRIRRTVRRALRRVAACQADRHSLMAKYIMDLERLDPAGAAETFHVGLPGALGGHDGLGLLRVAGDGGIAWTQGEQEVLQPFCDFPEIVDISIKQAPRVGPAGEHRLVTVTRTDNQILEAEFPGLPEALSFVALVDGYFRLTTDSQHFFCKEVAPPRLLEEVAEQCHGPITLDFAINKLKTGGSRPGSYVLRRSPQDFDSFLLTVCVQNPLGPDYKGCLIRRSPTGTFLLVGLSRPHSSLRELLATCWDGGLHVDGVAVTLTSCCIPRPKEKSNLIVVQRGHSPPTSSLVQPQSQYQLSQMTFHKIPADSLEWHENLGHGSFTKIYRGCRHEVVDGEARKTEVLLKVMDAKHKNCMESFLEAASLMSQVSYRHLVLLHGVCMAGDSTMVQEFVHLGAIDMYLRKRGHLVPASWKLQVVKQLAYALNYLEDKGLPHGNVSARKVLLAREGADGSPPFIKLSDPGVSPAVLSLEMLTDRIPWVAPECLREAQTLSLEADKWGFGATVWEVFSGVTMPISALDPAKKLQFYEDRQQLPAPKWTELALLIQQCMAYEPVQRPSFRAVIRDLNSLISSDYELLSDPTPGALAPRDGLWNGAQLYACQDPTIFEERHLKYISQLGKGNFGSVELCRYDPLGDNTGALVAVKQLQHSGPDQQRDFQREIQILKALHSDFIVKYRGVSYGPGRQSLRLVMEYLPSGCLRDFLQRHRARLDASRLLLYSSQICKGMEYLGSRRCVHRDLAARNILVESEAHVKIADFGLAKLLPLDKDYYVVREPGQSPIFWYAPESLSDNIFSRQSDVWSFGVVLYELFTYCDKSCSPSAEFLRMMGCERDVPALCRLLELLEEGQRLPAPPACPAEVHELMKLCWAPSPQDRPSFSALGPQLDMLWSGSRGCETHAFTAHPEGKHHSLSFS
# measurement.notes: Kinobeads assay, JAK3
# experimental.parameters: mixed Molt4/Ramos lysate, read-out: Inhibition values (IC50) JAK3

Give the reported IC50 for this molecule. O=C(O)C(Nc1nc(Nc2cnn(CCO)c2)ncc1Cl)c1ccccc1 (centres unmarked)
0.1 to 1 µM

Give the reported IC50 for this molecule. NC(=O)Cn1cc(Nc2ncc(Cl)c(N[C@H](CO)c3ccccc3F)n2)cn1
< 0.1 µM

Give the reported IC50 for this molecule. C[C@@H](CO)NC(=O)Cn1cc(Nc2ncc(Cl)c(N[C@H](CO)c3ccccc3F)n2)cn1
< 0.1 µM

Give the reported IC50 for this molecule. CCn1cc(Nc2ncc(Cl)c(N[C@H](CO)c3cccc(OC)c3)n2)cn1
< 0.1 µM

Give the reported IC50 for this molecule. Cn1cc(Nc2ncc(Cl)c(N[C@H](CO)c3cccnc3)n2)cn1
< 0.1 µM

Give the reported IC50 for this molecule. Cn1cc(Nc2ncc(Cl)c(NC(CO)c3cccc(F)c3)n2)cn1 (centres unmarked)
< 0.1 µM

Give the reported IC50 for this molecule. OCCn1ccc(Nc2ncc(Cl)c(NC(CO)c3ccccc3F)n2)n1 (centres unmarked)
0.1 to 1 µM

Give the reported IC50 for this molecule. CNC(=O)Cn1cc(Nc2ncc(Cl)c(NC(CO)c3cc(F)cc(F)c3)n2)cn1 (centres unmarked)
< 0.1 µM

Give the reported IC50 for this molecule. CN(C)C(=O)[C@@H](Nc1nc(Nc2cnn(C)c2)ncc1Cl)c1ccccc1
0.1 to 1 µM

Give the reported IC50 for this molecule. Cc1cnc(Nc2cnn(CC(=O)N3CCOCC3)c2)nc1NC(CO)c1c(F)cccc1F (centres unmarked)
< 0.1 µM

Give the reported IC50 for this molecule. CN(C)C(=O)C(Nc1nc(Nc2cnn(CCO)c2)ncc1Cl)c1ccccc1F (centres unmarked)
0.1 to 1 µM

Give the reported IC50 for this molecule. OCCn1cc(Nc2ncc(F)c(N[C@H](CO)c3ccccc3)n2)cn1
< 0.1 µM

Give the reported IC50 for this molecule. CNC(=O)Cn1cc(Nc2ncc(C)c(N[C@H](CO)c3ccccc3)n2)cn1
< 0.1 µM

Give the reported IC50 for this molecule. CNC(=O)Cn1cc(Nc2ncc(Cl)c(N[C@H](CO)c3cccc(-c4cnn(C)c4)c3)n2)cn1
< 0.1 µM

Give the reported IC50 for this molecule. CN(C)CCCNC(=O)Cn1cc(Nc2ncc(Cl)c(N[C@H](CO)c3ccccc3)n2)cn1
< 0.1 µM

Give the reported IC50 for this molecule. CNC(=O)Cn1cc(Nc2ncc(Cl)c(NC(CO)c3ccccc3F)n2)cn1 (centres unmarked)
< 0.1 µM

Give the reported IC50 for this molecule. COCCNC(=O)[C@@H](Nc1nc(Nc2cnn(C)c2)ncc1Cl)c1ccccc1
< 0.1 µM

Give the reported IC50 for this molecule. Cn1cc(Nc2ncc(Cl)c(NC(CO)c3c(F)cccc3F)n2)cn1 (centres unmarked)
< 0.1 µM

Give the reported IC50 for this molecule. OCCn1cc(Nc2ncc(Cl)c(N[C@H](CO)c3cccc(F)c3)n2)cn1
< 0.1 µM

Give the reported IC50 for this molecule. CN(C)C(=O)Cn1cc(Nc2ncc(Cl)c(N[C@H](CO)c3ccccc3)n2)cn1
< 0.1 µM

Give the reported IC50 for this molecule. CC(C)(O)Cn1cc(Nc2ncc(Cl)c(NC(CO)c3ccccc3F)n2)cn1 (centres unmarked)
< 0.1 µM

Give the reported IC50 for this molecule. COC[C@@H](Nc1nc(Nc2cnn(C)c2)ncc1Cl)c1ccccc1
0.1 to 1 µM

Give the reported IC50 for this molecule. COc1cccc([C@@H](CO)Nc2nc(Nc3cnn(CC(N)=O)c3)ncc2Cl)c1
< 0.1 µM

Give the reported IC50 for this molecule. CNC(=O)Cn1cc(Nc2ncc(Cl)c(NC(CO)c3cccc(F)c3)n2)cn1 (centres unmarked)
< 0.1 µM

Give the reported IC50 for this molecule. COc1cccc([C@@H](CO)Nc2nc(Nc3cnn(C)c3)ncc2Cl)c1
< 0.1 µM

Give the reported IC50 for this molecule. NC(=O)Cn1cc(Nc2ncc(Cl)c(N[C@H](CO)c3ccccc3)n2)cn1
< 0.1 µM

Give the reported IC50 for this molecule. CCC(Nc1nc(Nc2cnn(CC(N)=O)c2)ncc1Cl)c1ccccc1F (centres unmarked)
0.1 to 1 µM

Give the reported IC50 for this molecule. Cn1cc(Nc2ncc(Cl)c(NC(CO)c3cccc(Br)c3)n2)cn1 (centres unmarked)
0.1 to 1 µM

Give the reported IC50 for this molecule. Cn1cc(Nc2ncc(Cl)c(N[C@@H](CO)c3ccccc3)n2)cn1
1 to 10 µM

Give the reported IC50 for this molecule. OC[C@@H](Nc1nc(Nc2cn[nH]c2)ncc1Cl)c1ccccc1
< 0.1 µM

Give the reported IC50 for this molecule. COc1cccc([C@@H](CO)Nc2nc(Nc3cnn(CC(=O)N4CCOCC4)c3)ncc2Cl)c1
< 0.1 µM

Give the reported IC50 for this molecule. Cc1cnc(Nc2cnn(CC(F)F)c2)nc1NC(CO)c1c(F)cccc1F (centres unmarked)
0.1 to 1 µM

Give the reported IC50 for this molecule. CNC(=O)Cn1cc(Nc2ncc(Cl)c(NC(CO)c3c(F)cccc3F)n2)cn1 (centres unmarked)
< 0.1 µM

Give the reported IC50 for this molecule. COc1cccc([C@@H](CO)Nc2nc(Nc3cnn(CCO)c3)ncc2Cl)c1
< 0.1 µM

Give the reported IC50 for this molecule. OCCn1cc(Nc2ncc(F)c(N[C@H](CO)c3cc(F)ccc3F)n2)cn1
< 0.1 µM
